# assay: Acute toxicity by oral administration in mice
# Format: in vivo
# study conditions: both sexes, Kunming, mouse, in vivo, 3 g/kg, oral administration, read-out: Maximum tolerated dose

[
  {
    "compound": "Cc1nc(C)c(COC(=O)CC[C@@H](C)C2CCC3C4CCC5C[C@H](O)CCC5(C)C4C[C@H](O)C32C)nc1C (stereo partly shown) [Compound 5]",
    "unit abbrev": "mg/kg",
    "MTD at 14 days": 3000
  }
]

----------
# assay: Acute toxicity by oral administration in mice
# Assay type: in vivo
# study conditions: both sexes, Kunming, mouse, in vivo, 3 g/kg, oral administration
observable: LD50 at 14 days

[
  {
    "compound": "Cc1nc(C)c(COC(=O)CC[C@@H](C)C2CCC3C4CCC5C[C@H](O)CCC5(C)C4C[C@H](O)C32C)nc1C (stereo partly shown) [Compound 5]",
    "observable": "LD50 at 14 days",
    "endpoint value": "> 3000 mg/kg"
  }
]

----------
# System: chick chorioallantoic membrane (CAM)
# assay: Chick chorioallantoic membrane (CAM) angiogenesis assay
# Type: in vivo, White Leghorn chicken
# study conditions: dose 10 μg/egg; n = 6; implanted day 7, read day 11; microvessels 1 to 100 μm in diameter
observable: Number of microvessels on CAM, treatment (mean ± s)

[
  {
    "molecule": "Cc1nc(C)c(COC(=O)CC[C@@H](C)C2CCC3C4C(C[C@H](O)C32C)C2(C)CC[C@@H](O)CC2C[C@H]4O)nc1C (stereo partly drawn)",
    "endpoint value": 6.2
  },
  {
    "molecule": "C=C(CCC(C(=O)OCc1nc(C)c(C)nc1C)C1[C@H](O)C[C@@]2(C)C3=C(CCC12C)C1(C)CCC(OC(C)=O)C(C)(C)C1CC3)C(C)C (stereo partly drawn)",
    "endpoint value": 9.7
  },
  {
    "molecule": "Cc1nc(C)c(COC(=O)CC[C@@H](C)C2CCC3C4CCC5C[C@H](O)CCC5(C)C4C[C@H](O)C32C)nc1C (stereo partly drawn)",
    "endpoint value": 4.8
  }
]

----------
# Test system: chick chorioallantoic membrane (CAM)
# assay: Chick chorioallantoic membrane (CAM) angiogenesis assay
# Type: in vivo, White Leghorn chicken
# study conditions: dose 10 μg/egg; n = 6; implanted day 7, read day 11; microvessels 1 to 100 μm in diameter
In this section, each of the molecules is paired with its reported Number of microvessels on CAM, treatment (mean ± s).
observable: Number of microvessels on CAM, treatment (mean ± s)

[
  {
    "molecule": "C=C(CCC(C(=O)OCc1nc(C)c(C)nc1C)C1[C@H](O)C[C@@]2(C)C3=CCC4C(C)(CCC(OC(C)=O)C4(C)C)C3=CCC12C)C(C)C (stereo partly shown) [Compound 9]",
    "target desc": "chick chorioallantoic membrane (CAM)",
    "endpoint value": "7.7 ± 2.16"
  },
  {
    "molecule": "Cc1nc(C)c(COC(=O)C23CCC(C)(C)CC2C2=CCC4C5(C)CCC(O)C(C)(C)C5CCC4(C)[C@]2(C)CC3)nc1C (stereo partly shown) [Compound 7]",
    "target desc": "chick chorioallantoic membrane (CAM)",
    "endpoint value": "12.0 ± 2.90"
  },
  {
    "molecule": "Cc1nc(C)c(COC(=O)/C=C/c2ccccc2)nc1C [Compound 11]",
    "target desc": "chick chorioallantoic membrane (CAM)",
    "endpoint value": "10.3 ± 2.73"
  },
  {
    "molecule": "Cc1nc(C)c(COC(=O)[C@@]2(C)CCC3(C)CC[C@]4(C)C(=CC(=O)C5C6(C)CCC(O)C(C)(C)C6CCC54C)C3C2)nc1C (stereo partly shown) [Compound 10]",
    "target desc": "chick chorioallantoic membrane (CAM)",
    "endpoint value": "9.5 ± 1.76"
  }
]

Source of measurements: paper PMC6268357
